Taken from patent US6251903A.

# Assayed System: glycine binding site (Rattus norvegicus, UniProt P35439)
# Test Description: affinity for the glycine binding site / glycine/NMDA receptor (Ki; method not stated)
# Conditions: read-out: Ki, affinity for the glycine/NMDA receptor
Property: Ki (µM)
Give bare numbers, in µM.

>>> numeric_value("O=c1[nH]c2c(F)c(Cl)c(F)c([N+](=O)[O-])c2[nH]c1=O")
0.17

Consider the additional molecule presented here.
Query: Short answer please: Ki, glycine binding site (Rattus norvegicus, UniProt P35439), entry "O=c1[nH]c2cc(F)c(F)c([N+](=O)[O-])c2[nH]c1=O"
Response: 0.087

---

# Assayed System: glycine binding site (Rattus norvegicus, UniProt P35439)
# Test Description: affinity for the glycine binding site / glycine/NMDA receptor (Ki; method not stated)
Would you kindly list pKi for each of these compounds?
Numbers only, as −log10 of the molar value.

>>> numeric_value("Cc1c(F)cc2[nH]c(=O)c(=O)[nH]c2c1[N+](=O)[O-]")
7.28
>>> numeric_value("Cc1cc2nc(O)c(O)nc2c([N+](=O)[O-])c1C")
7.37
>>> numeric_value("COc1c(F)cc2[nH]c(=O)c(=O)[nH]c2c1[N+](=O)[O-]")
6.49
>>> numeric_value("Cc1cc2[nH]c(=O)c(=O)[nH]c2c([N+](=O)[O-])c1Cl")
7.57
>>> numeric_value("Oc1nc2cc(F)c(Cl)c(F)c2nc1O")
6.00

Query: Entry "Cc1c(Cl)cc2[nH]c(=O)c(=O)[nH]c2c1[N+](=O)[O-]" : reported pKi = ?
Response: 8.30

---

# Assayed System: glycine binding site (Rattus norvegicus, UniProt P35439)
# Test Description: affinity for the glycine binding site / glycine/NMDA receptor (Ki; method not stated)
# Conditions: Table III; read-out: Ki
# Description: The binding affinities of quinoxaline-2,3-diones at NMDA receptor glycine sites also were estimated by electrophysiological assays with either cloned rat NMDA receptors expressed in Xenopus oocytes, or non-NMDA receptors expressed in oocytes by whole rat brain poly(A)^+ RNA. […] For NMDA receptors Ki values were approximated by averaging values at three subtype combinations (NR1A/NR2A, NR1A/NR2B, and NR1A/NR2C).
Property: pKi
One number for each entry, as −log10 of the molar value.

>>> numeric_value("[N-]=[N+]=Nc1c(F)cc2[nH]c(=O)c(=O)[nH]c2c1[N+](=O)[O-]")
6.55
>>> numeric_value("O=c1[nH]c2cc(F)c(Cl)c([N+](=O)[O-])c2[nH]c1=O")
6.74
>>> numeric_value("O=c1[nH]c2cc(Cl)c(F)c([N+](=O)[O-])c2[nH]c1=O")
7.15

For the 2 molecules below, give their pKi values.
1. O=c1[nH]c2cc(F)c(Br)c([N+](=O)[O-])c2[nH]c1=O
2. O=c1[nH]c2cc(F)c(F)cc2[nH]c1=O

Response:
[7.37, 5.09]

For the 3 molecules below, give their pKi values.
1. O=c1[nH]c2cc(F)c(F)c(F)c2[nH]c1=O
2. O=c1[nH]c2cc(F)c(F)c(Br)c2[nH]c1=O
3. O=c1[nH]c2c(F)c(F)c(F)c(F)c2[nH]c1=O

Response:
5.53
5.64
5.66

---

# Assayed System: glycine binding site (Rattus norvegicus, UniProt P35439)
# Test Description: affinity for the glycine binding site / glycine/NMDA receptor (Ki; method not stated)
# Conditions: Table IV; read-out: Ki
Property: pKi
Numbers only, as −log10 of the molar value.

Before answering, review these 2 worked examples.
>>> numeric_value("O=c1[nH]c2cc(Cl)cc(C(F)(F)F)c2[nH]c1=O")
6.40
>>> numeric_value("O=c1[nH]c2cc(C(F)(F)F)cc(Cl)c2[nH]c1=O")
6.49

Consider the additional compound presented here.
Query: Entry "O=c1[nH]c2cc(C(F)(F)F)cc([N+](=O)[O-])c2[nH]c1=O" : reported pKi = ?
Response: 7.02
